Test system: SNB-19 CNS
Assay Comment: NCI tumour cell line growth inhibition, 48 h
Recorded TGI for the following compounds

Use the examples below as a reference point.
1. Clc1cccc(C2ON=C(c3ccccc3)N2C23CC4CC(CC(C4)C2)C3)c1Cl (stereo not drawn)
> 10 µM
2. O=C1c2ccccc2-c2c1c1ccccc1c(=O)n2CCNCCCNCCn1c2c(c3ccccc3c1=O)C(=O)c1ccccc1-2
> 50 µM
3. O=C1CCn2c([nH]c3cccc4cccc2c43)=N1
> 100 µM
4. O=C(CN=C(CN(c1ccccc1)c1ccccc1)Oc1c(Cl)cc(Cl)cc1Cl)n1cnc2ccccc21
> 100 µM
5. CCCCCC(C(O)C#N)C(O)(C(F)(F)F)C(F)(F)F (stereo not drawn)
> 10 µM

For the compound shown here, CC1(C)OC(=O)C=C([O-])O1.CC1(C)OC(=O)C=C([O-])O1.O=c1c(O)c(-c2ccc([O-])cc2[O-])oc2cc(O)cc(O)c12.[Ti+4] , give the reported TGI.
> 100 µM

* * *

Test system: T-47D breast
Assay Comment: NCI tumour cell line growth inhibition, 48 h
Recorded TGI for the following compounds

Use the examples below as a reference point.
1. CC(C)Cc1c(C#N)c(C#N)c(N)n1Cc1ccccc1
> 100 µM
2. c1ccc(-c2ccc(N=NN3CCCC3)cc2)cc1
> 100 µM

Shift focus to the following entry.
For the compound shown here, COc1ccc(CN2C(=O)C(=O)N(C)C2=O)c2ccccc12 , give the reported TGI.
> 10 µM

* * *

Recorded TGI for the following compounds
System: HCC-2998 colon
Assay Comment: NCI tumour cell line growth inhibition, 48 h

Use the examples below as a reference point.
1. O=C(c1ccccc1)[C@H]1Nc2cnccc2C2c3ccccc3CC21 (stereo partly drawn)
> 100 µM
2. CC(C)(C)C1(O)Cc2ccccc2C(=O)O1 (stereo not drawn)
> 100 µM

For the compound shown here, COc1ccc(N2C(=O)C3c4[nH]c5ccccc5c4C4C(C)CCCC4C3C2=O)cc1 (stereo not drawn) , give the reported TGI.
> 100 µM

* * *

Recorded TGI for the following compounds
System: SNB-19 CNS
Assay Comment: NCI tumour cell line growth inhibition, 48 h
Numbers only; they are read as µM.

Use the examples below as a reference point.
1. C=C1C(=O)O[C@H]2[C@H]1CC/C(COC(=O)c1cc3cc(OC)ccc3[nH]1)=C\CC[C@@]1(C)O[C@@H]21
3.2
2. COc1cc(/C=C2\CC3C4CC=C5CC(N6CCCC6)CC[C@]5(C)C4CC[C@]3(C)C2OC(C)=O)ccc1OCCN1CCCC1 (some centres not stated)
22.8

Shift focus to the following entry.
For the compound shown here, COC(=O)c1cc2c3c(cc(NCCN)c2[nH]1)N(C(=O)c1cc2cc(OC)c(OC)c(OC)c2[nH]1)CC3CCl (configuration not stated) , give the reported TGI.
0.0517
